System: MDA-MB-435 melanoma
procedure.details: NCI-60 one-dose screen, 48 h (100 = growth as untreated, 0 = no growth, -100 = all killed)
run.conditions: 10 µM
Procedure: Growth inhibition of the MDA-MB-435 human Melanoma tumor cell line is measured as a screen for anti-cancer activity. Cells are grown in 96 well plates and exposed to the test compound for 48 hours. Compounds are tested at a single concentration, which is 10^-5 M for most compounds. The reported endpoint is percent growth (GI% or GIPRCNT), where numbers from 0 - 100% represent growth inhibition, and numbers from -100% - 0 represent cell death. […]
The panel holds about 83,000 compounds, 20% with a hit somewhere; the sample as a whole holds those more often.
growth: recorded values
Answer in %, number only, no unit symbol.

Below, each entry is followed by its recorded growth result.
>>> result("[O-]c1c[n+](-c2ccc(Cl)cc2)no1")
100
>>> result("COc1ccc(CCc2nc3cc(-c4c(C)noc4C)ccc3n2CCN2CCOCC2)cc1")
26.1
>>> result("COc1cccc(C(=O)NNc2nc(N3CCN(C4CCCCC4)CC3)nc(N3CCN(C(c4ccccc4)c4ccccc4)CC3)n2)c1")
35
>>> result("CC(C)c1[nH]nc2c(NCc3ccc(-c4ccccn4)cc3)nc(SCCN(C)C)nc12")
0.81
>>> result("O=C(N/N=C\\c1cc(Cl)ccc1O)c1ccncc1")
89.4

growth for NC1CCC(Nc2nc(NCc3cc(Cl)ccc3O)c3ncn(C4CCCC4)c3n2)CC1 (configuration not stated) is -43.9

Entry COc1cc(CSc2nc3ccc(Cl)cc3c(=O)n2-c2ccccc2)cc(OC)c1OC ; growth = 24.4

# growth (molecule: CCCCCCCCCCCC(c1ccccc1)N(C)C (configuration not stated) ) is 102
